Collected literature values of pIC50 measured for Cathepsin S (Homo sapiens, UniProt P25774).
Give bare numbers, as −log10 of the molar value.

N#CC1(NC(=O)[C@@H]2C[C@@H](S(=O)(=O)c3ccccc3Cl)CN2C(=O)C2CCN2C2CCCCC2)CC1 (some centres unmarked) yielded pIC50 of 8.77

Data point: CO[C@@H]1C[C@H](S(=O)(=O)c2ccc(-c3ccc(C)nc3)cc2C(F)(F)F)C[C@H]1C(=O)NC1(C#N)CC1 (racemic) ; pIC50 = 9.22

Item: `CN(C)C(=O)N1CCC(CCOc2ccc(-c3nc(C#N)nc4c3ncn4C)cc2C(F)(F)F)CC1` | pIC50: 8.21

// field: pIC50; key: `N#CC1(NC(=O)[C@@H]2C[C@@H](S(=O)(=O)c3ncccc3C(F)(F)F)CN2C(=O)C2(c3ncc(Cl)cc3F)CC2)CC1` ; value = 8.49

pIC50 reported for this compound `CC[C@H](NC(=O)[C@@H]1C[C@@H](S(=O)(=O)c2ccccc2Cl)CN1C(=O)C1(c2ccc(Cl)cc2)CC1)C(=O)C(=O)NCCc1cccc2ccccc12` : 8.56

Give pIC50 for all compounds that follow.
1. Cc1cc(-n2ccc(C(F)(F)F)n2)ccc1S(=O)(=O)[C@@H]1C[C@@H](C(=O)NC2(C#N)CC2)N(C(=O)C2(C(F)(F)F)CC2)C1
2. COC[C@H]1C[C@@H](NC(=O)c2ncc(-c3cc(C#N)ccc3OC3CC3)o2)CN1C#N
3. CC(C)(O[C@@H]1C[C@H](S(=O)(=O)c2ccccc2Cl)C[C@H]1C(=O)NC1(C#N)CC1)c1ccc(Cl)cc1 (racemic)
4. N#CC1(NC(=O)[C@@H]2C[C@@H](S(=O)(=O)c3ccccc3-n3cncn3)CN2C(=O)C2(c3ncc(Cl)cc3F)CC2)CC1
5. CO[C@@H]1C[C@H](S(=O)(=O)c2ccc(-c3cnn(CC(=O)O)c3)cc2C(F)(F)F)C[C@H]1C(=O)NC1(C#N)CC1 (racemic)
6. Cn1cnc2c(-c3cnc(OCCC4CCN(C(=O)[C@@H]5CCCN5)CC4)c(C(F)(F)F)c3)nc(C#N)nc21

[8.84, 3.89, 7.83, 7.23, 9.14, 8.57]

----------
Hi, quick share: literature pIC50 data for Cathepsin S (Homo sapiens, UniProt P25774), several sources combined.
Numbers only, as −log10 of the molar value.

Provide reported pIC50 for each item, in the same order as listed.
1. N#CC1(NC(=O)[C@@H]2C[C@@H](S(=O)(=O)c3cc(C(F)(F)F)ccc3Cl)CN2C(=O)C2(c3ccc(Cl)cn3)CC2)CC1
2. Cn1nc(C(F)(F)F)cc1-c1ccc(S(=O)(=O)[C@@H]2C[C@@H](C(=O)NC3(C#N)CC3)N(C(=O)C3(C(F)(F)F)CC3)C2)c(C(F)(F)F)c1
3. CO[C@@H]1C[C@H](S(=O)(=O)c2ccc(-c3ccc(F)cn3)cc2C(F)(F)F)C[C@H]1C(=O)NC1(C#N)CC1 (racemic)
4. Cn1cc(-c2cccc(S(=O)(=O)[C@@H]3C[C@@H](C(=O)NC4(C#N)CC4)[C@H](C(=O)N4CCC(F)(F)C4)C3)c2)cn1
5. Cc1ncccc1-c1ccc(S(=O)(=O)[C@@H]2C[C@@H](C(=O)NC3(C#N)CC3)N(C(=O)C3(c4ncc(I)cc4F)CC3)C2)c(Cl)c1
6. Cc1cc(C(F)(F)F)nn1-c1ccc(S(=O)(=O)[C@@H]2C[C@@H](C(=O)NC3(C#N)CC3)N(C(=O)C3(C(F)(F)F)CC3)C2)cc1

[9.21, 8.99, 9.00, 9.42, 9.42, 8.59]
